Taken from PubChem BioAssay AID1415.

# assayTarget: Guanine nucleotide-binding protein G(o) subunit alpha (Homo sapiens) (UniProt P09471)
# Sequence (P09471 whole entry, looked up): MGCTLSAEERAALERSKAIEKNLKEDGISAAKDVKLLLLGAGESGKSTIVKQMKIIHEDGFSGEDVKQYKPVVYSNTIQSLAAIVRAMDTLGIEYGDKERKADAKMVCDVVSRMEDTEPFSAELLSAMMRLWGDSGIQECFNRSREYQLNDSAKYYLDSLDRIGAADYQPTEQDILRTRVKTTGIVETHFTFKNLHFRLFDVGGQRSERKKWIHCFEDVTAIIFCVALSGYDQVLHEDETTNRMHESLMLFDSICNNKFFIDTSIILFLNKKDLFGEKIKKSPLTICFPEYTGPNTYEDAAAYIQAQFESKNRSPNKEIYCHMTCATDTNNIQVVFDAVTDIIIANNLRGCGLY
# assayProtocol: modulators of RGS4 binding to Galphao, primary screen, biochemical, multiplexed bead flow cytometry (AID 1415);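 note: fluorescent Galphao activated with aluminum fluoride binding bead-coupled RGS4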
# conditionNotes: at 10 µM, actives lie on both sides
The whole screen tested about 220,000 compounds, of which about 710 (0.32%) were called active. Cut-off read from the data, not from the text of the source: active = binding response below about 49% or above about 150%; inactive = in between. The list comes from a sample in which actives are over-represented; it also holds close analogues and randomly drawn compounds.
Return exactly one item of active, inactive

Hi, sorry to bother you, what did the test record for CC(Oc1ccccc1)C(=O)Nc1oc(-c2ccco2)c(-c2ccco2)c1C#N (stereo unspecified) ?
inactive

Hi, sorry to bother you, what did the test record for C=CCn1c(Cn2nnc3ccccc32)nnc1SCC(=O)N/N=C/c1cc(Br)cc(OC)c1O ?
active

Hi, sorry to bother you, what did the test record for Cn1c(CC2Sc3ccccc3NC2=O)nnc1SCC(=O)c1ccc(Cl)cc1 (stereo unspecified) ?
inactive

Hi, sorry to bother you, what did the test record for O=C(CSc1ccc([N+](=O)[O-])cn1)Nc1ccc(N2CCOCC2)c(Cl)c1 ?
inactive

Hi, sorry to bother you, what did the test record for Cc1cccc(S(=O)(=O)CC(=O)Nc2nc(-c3ccccc3)cs2)c1 ?
active

Hi, sorry to bother you, what did the test record for CC(OC(=O)c1ccc2ccccc2n1)C(=O)c1ccccc1 (stereo unspecified) ?
inactive

Hi, sorry to bother you, what did the test record for CCOC(=O)C1Sc2[nH]c(=O)sc2C(c2ccc(Cl)cc2)C1C(=O)OCC (stereo unspecified) ?
active

Hi, sorry to bother you, what did the test record for COc1ccc(OC)c(-n2c(-c3ccn[nH]3)n[nH]c2=S)c1 ?
inactive

Hi, sorry to bother you, what did the test record for CC(Nc1nc(N2CCN(CCO)CC2)nc2ccccc12)c1ccccc1 (stereo unspecified) ?
inactive

Hi, sorry to bother you, what did the test record for COc1ccccc1-n1c(-c2cc(-c3ccco3)[nH]n2)n[nH]c1=S ?
active

Hi, sorry to bother you, what did the test record for O=C(COC(=O)/C=C/c1ccc2c(c1)OCO2)NC1CCS(=O)(=O)C1 (stereo unspecified) ?
inactive

Hi, sorry to bother you, what did the test record for Cc1nc(NNC(=O)c2ccccc2)cc(-c2ccccc2)n1 ?
inactive

Hi, sorry to bother you, what did the test record for O=C(c1ccc(=O)oc1)N1CCC(C(O)(c2ccccc2)c2ccccc2)CC1 ?
inactive

Hi, sorry to bother you, what did the test record for CC(C)=CCc1c(O)c(CC=C(C)C)c2occ(-c3ccc(O)cc3)c(=O)c2c1O ?
inactive

Hi, sorry to bother you, what did the test record for NC(=O)[C@H]1CC2(CC(c3cccc(NC(=O)[C@H]4CCC(=O)N4)c3)=NO2)CN1C(=O)c1ccccc1C(=O)c1ccccc1 (stereo partly specified) ?
inactive

Hi, sorry to bother you, what did the test record for CCC(C)NC(=O)CN(C1CCCCC1)S(C)(=O)=O (stereo unspecified) ?
inactive

Hi, sorry to bother you, what did the test record for COc1ccccc1-n1cn[nH]c1=S ?
inactive

Hi, sorry to bother you, what did the test record for C#CCOCCOCCOCCNc1nc(N2CCN(C(=O)[C@H](CCC(=O)O)n3cc(C(N)CO)nn3)CC2)nc(N2CCN(C(=O)[C@H](CCCCN)n3cc(C(N)CC(C)C)nn3)CC2)n1 (stereo partly specified) ?
inactive

Hi, sorry to bother you, what did the test record for COc1ccc(CC(=O)N/N=C(\C)c2ccccn2)cc1 ?
inactive

Hi, sorry to bother you, what did the test record for COc1ccc(C(=O)COC(=O)c2ccc3ccccc3n2)cc1 ?
active

Hi, sorry to bother you, what did the test record for CCOc1cc(NC(=O)c2ccccn2)c(OCC)cc1NC(=O)c1ccc(OC)cc1 ?
inactive
